Test system: Staphylococcus aureus
protocol-text: Bactericidal activity against Staphylococcus aureus ATCC 6538 at 10 ppm concentration; - = Negative
Assay type: functional, organism-based
measured-endpoint: Activity

| smiles-notation | tested-target | measured-endpoint | experimental-value |
| --- | --- | --- | --- |
| O=S(=O)(Nc1ccc(Cl)c(Cl)c1)c1ccc(Cl)c(Cl)c1 | Staphylococcus aureus | Activity | Negative |
| C=C(CCCCC)C(=O)Nc1cc(Cl)cc(Cl)c1 | Staphylococcus aureus | Activity | Negative |
| CCCCCCC(=O)Nc1cc(Cl)cc(Cl)c1 | Staphylococcus aureus | Activity | Negative |
